experiment: chemical genetic growth profiling, strain panel (AID 1159580);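 note: tested at 20 µM; growth read once vehicle control cultures reached saturation at 30 °C; 1 = growth at the plate median or of vehicle wells; lower values mean less growth of the strain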; details: S. cerevisiae deletion strains, growth OD, locus YLR262C, strain YPT6, active compounds read low
Screen size: about 5,500 compounds; about 2,000 (36%) were called active. Inconclusive results (about 18%) are left out. This is one part of the list.

| COMPOUND | normalized growth |
| --- | --- |
| CC(=O)O[C@H]1CC[C@@]2(C)C(C[C@@H](OC(C)=O)[C@]3(C)C2CC[C@@]2(C)[C@H](c4ccoc4)OC(=O)[C@H]4O[C@]423)C1(C)C (stereo partly specified) | 1.1 (inactive) |
| CC(=O)O[C@@H]1CC2C(C)(C)[C@H](O)CC[C@]2(C)C2CC[C@@]3(C)[C@H](c4ccoc4)OC(=O)C4OC43[C@@]21C (stereo partly specified) | 1.05 (inactive) |
| CC(=O)O[C@H]1C[C@@H](OC(C)=O)C(C)(C)C2C[C@@H](OC(C)=O)[C@]3(C)C(CC[C@@]4(C)[C@H](c5ccoc5)OC(=O)[C@H]5O[C@]543)[C@]21C (stereo partly specified) | 0.974 (inactive) |
| CC(=O)O[C@@H]1CC2C(C)(C)[C@H](O)CC[C@]2(C)C2CC[C@@]3(C)[C@H](c4ccoc4)OC(=O)[C@H]4O[C@]43[C@@]21C (stereo partly specified) | 1.13 (inactive) |
| CC(=O)O[C@@H]1CC2C(C)(C)[C@@H](O)CC[C@]2(C)C2CC[C@@]3(C)[C@H](c4ccoc4)OC(=O)[C@H]4O[C@]43[C@@]21C (stereo partly specified) | 0.974 (inactive) |
| CC(=O)OC1CC(OC(C)=O)C2(C)C(CC(OC(C)=O)C3(C)C2CCC2(C)C(c4ccoc4)OC(=O)C4OC423)C1(C)C (stereo unspecified) | 0.975 (inactive) |
